Tested on: CAKI-1 renal
Assay: NCI-60 one-dose screen, 48 h
Conditions: 10 µM unless noted
About 83,000 compounds went through this panel and 20% of them were active in at least one assay; those are over-represented in the sample as a whole. Calls of active or inactive are those of the source. How the source made its calls: active means growth percent below 10; inactive means the rest.
Classes used: TRUE for active, FALSE for inactive

compound=CC(C)CCC1C(=O)NC(=O)NC1=O class_name=FALSE
compound="COc1ccc2c(c1)C1(C)CCN(C)CC(C1)C2O (stereo not drawn)" class_name=FALSE
compound=O=[P+](O)c1cccnc1 class_name=FALSE
compound=C[C@]12CC[C@H]3[C@@H](CC=C4c5nc(N)sc5CC[C@@]43C)[C@@H]1CC[C@@H]2O class_name=FALSE
compound="COC12CC3C4=CCOC5CC(=O)N6c7ccccc7C1(CCN2C4)C6C53 (stereo not drawn)" class_name=FALSE
compound=N#CCCc1ccccc1 class_name=FALSE
compound=O=NN1CCCCC1 class_name=FALSE
compound="CC1OC(=O)C(C(C)C)NC(=O)C(C(C)C)OC(=O)C(C(C)C)NC(=O)C(C)OC(=O)C(C(C)C)NC(=O)C(C(C)C)OC(=O)C(C(C)C)NC(=O)C(C)OC(=O)C(C(C)C)NC(=O)C(C(C)C)OC(=O)C(C(C)C)NC1=O (stereo not drawn)" class_name=TRUE
compound=C[C@@H]1C/C=C\C(=O)O[C@H](/C=C/C#C/C=C/C(C)(C)[C@@H](O)c2cccc(O)c2Br)[C@@H](C)/C=C/[C@H](C)C[C@H](OC(N)=O)C1 class_name=TRUE
compound=C[Se]/C=C1/C(=O)N(c2c(Cl)cccc2Cl)c2ccccc21 class_name=TRUE
compound=CC[C@H](C)[C@H](NC(=O)c1cnccn1)C(=O)N(C)[C@H](C[C@@H](OC(C)=O)c1nc(C(=O)N[C@@H](Cc2ccccc2)C[C@H](C)C(=O)OC)cs1)C(C)C class_name=FALSE
compound="O=C(O)C(Br)CBr (stereo not drawn)" class_name=FALSE
compound=O=P(O)(Nc1ccccc1)Nc1ccccc1 class_name=FALSE
compound=C[C@@]12CCCc3coc(c31)C(=O)c1cc3c(cc12)C(=O)C1=C(NCCS1(=O)=O)C3=O class_name=FALSE
compound=C[C@]12CCc3sc(Nc4ccc(F)cc4)nc3C1=CC[C@@H]1[C@@H]2CC[C@]2(C)C(=O)CC[C@@H]12 class_name=FALSE
compound=C[C@]12CCc3sc(Nc4ccc(O)cc4)nc3C1=CC[C@@H]1[C@@H]2CC[C@]2(C)C(=O)CC[C@@H]12 class_name=FALSE
compound=CC1(C)N=C(N)N=C(N)N1c1ccc(CCC(=O)Nc2ccc(S(=O)(=O)F)cc2)cc1 class_name=FALSE
compound="N#CC(N)c1ccccc1 (stereo not drawn)" class_name=FALSE
compound="COc1c(O)cc2c(c1OC)-c1ccc(SC)c(=O)cc1C(NC(C)=O)CC2 (stereo not drawn)" class_name=FALSE
compound=COc1ccc(CN)cc1OC class_name=FALSE
compound=O=[N+]([O-])c1ccc(P(=O)(O)O)cc1 class_name=FALSE
compound=c1ccc(CCN2CCCCC2)nc1 class_name=FALSE
compound=CC1(C)C=Cc2c(ccc3c2[N+]([O-])=C2C3=C[C@@]34NC(=O)[C@]5(CCCN5C3=O)C[C@@H]4C2(C)C)O1 class_name=FALSE
compound="O=C1CCCCC1CN1CCCCC1 (stereo not drawn)" class_name=FALSE
compound="CCN1C(=O)NC(=O)C(C)(N2C(=O)c3c(F)c(F)c(F)c(F)c3C2=O)C1=O (stereo not drawn)" class_name=TRUE
compound=CC[C@H](C)[C@H]1O[C@]2(C=C[C@@H]1C)C[C@@H]1C[C@@H](C/C=C(\C)[C@@H](O[C@H]3C[C@H](OC)[C@@H](O[C@H]4C[C@H](OC)[C@@H](NC)[C@H](C)O4)[C@H](C)O3)[C@@H](C)/C=C/C=C3\CO[C@@H]4[C@H](O)C(C)=C[C@@H](C(=O)O1)[C@]34O)O2 class_name=FALSE
compound=c1ccc2c(c1)sc1ccccc12 class_name=FALSE
compound=CCC(Br)(CC)C(=O)NC(N)=O class_name=FALSE
compound=C=C[Se]CC(=O)/C=C/c1ccccc1 class_name=FALSE
compound="COC1C(O)CC(OC2CC(Oc3cc4cc5c(c(O)c4c(O)c3C)C(=O)[C@@H](OC3CC(OC4CC(OC6CC(C)(O)C(OC(C)=O)C(C)O6)C(O)C(C)O4)C(O)C(C)O3)[C@H]([C@H](OC)C(=O)[C@@H](O)[C@@H](C)O)C5)OC(C)C2OC(C)=O)OC1C (stereo partly drawn)" class_name=TRUE
compound=O=c1c2ccccc2nc(-c2ccccc2Cl)n1-c1nnc(C(F)(F)F)s1 class_name=TRUE
compound=O=[N+]([O-])c1ccc(OCc2ccc(S(=O)(=O)F)c(Cl)c2)c(Cl)c1 class_name=FALSE
compound=CCCCOCCOP(=O)(OCCOCCCC)OCCOCCCC class_name=FALSE
compound=CC1=C2[C@H]3OC(=O)[C@@H](C)[C@@H]3CC[C@@]2(C)C=CC1=O class_name=FALSE
compound=C[C@]12CCc3sc(Nc4ccc(F)cc4F)nc3C1=CC[C@@H]1[C@@H]2CC[C@]2(C)C(=O)CC[C@@H]12 class_name=FALSE
compound="CN1C2CCC1[C@@H](COC(=O)c1ccccc1)[C@@H](O)C2 (stereo partly drawn)" class_name=FALSE
compound=CO/N=C1\CC[C@]2(C)[C@H]3CC[C@]4(C)C(=O)CC[C@H]4[C@@H]3C[C@@H]3SC(N)=N[C@@]32C1 class_name=FALSE
compound=Cc1nnc([S-])o1.[Au+].c1ccc([PH+](c2ccccc2)c2ccccc2)cc1 class_name=FALSE
